Biological target: adenosine A2A receptor (Homo sapiens)
Sequence (P29274 whole entry): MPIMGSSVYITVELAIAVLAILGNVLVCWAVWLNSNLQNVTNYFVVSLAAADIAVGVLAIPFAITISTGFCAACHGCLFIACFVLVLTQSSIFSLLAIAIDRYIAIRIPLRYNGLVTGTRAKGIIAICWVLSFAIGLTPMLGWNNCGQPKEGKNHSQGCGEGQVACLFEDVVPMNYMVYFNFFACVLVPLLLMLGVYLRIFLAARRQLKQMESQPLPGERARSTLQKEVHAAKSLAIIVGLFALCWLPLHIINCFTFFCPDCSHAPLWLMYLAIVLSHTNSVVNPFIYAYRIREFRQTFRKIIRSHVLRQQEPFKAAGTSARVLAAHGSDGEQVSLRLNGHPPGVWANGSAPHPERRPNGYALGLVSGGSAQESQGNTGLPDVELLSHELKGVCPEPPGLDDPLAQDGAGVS
Property measured: Ki (µM)
Use µM as the unit, but write only the number.

Ask | Give reported Ki value for Nc1nc(Cl)nc2c1ncn2[C@@H]1O[C@H](CO)[C@@H](O)[C@@H]1F [clofarabine]
Reply | 17.5

Attribution: paper PMC3831620
